biological target: Cholecystokinin receptor type A (Cavia porcellus); assay: Percent maximal stimulation of phosphatidylinositol hydrolysis in guinea pig pancreatic acini (CCK-A receptors) relative to CCK-8; type: functional
Square brackets hold non-standard residues; d marks the D form. Peptide text beside a SMILES is read from it. * marks the point of attachment. ξ: configuration not given here. Acryloyl(3-(3-pyridyl),E) = O=C(/C=C/c1cccnc1)*; NMeF = CN[C@@H](Cc1ccccc1)C(=O)O; ξW = NC(Cc1c[nH]c2ccccc12)C(=O)O; NMeD = CN[C@@H](CC(=O)O)C(=O)O; X1 = O=C(/C=C/c1ccc(O)cc1)*; Boc = CC(C)(C)OC(=O)*
VALUE TYPE: Hydrolysis (%)

{"COMPOUND": "CN(C(=O)[C@H](CCCCNC(=O)/C=C/c1ccc(O)cc1)NC(=O)C(Cc1c[nH]c2ccccc12)NC(=O)OC(C)(C)C)[C@@H](CC(=O)O)C(=O)N[C@@H](Cc1ccccc1)C(N)=O (some centres not stated) (Boc-[ξW]K(X1)[NMeD]F-NH2)", "TARGET": "Cholecystokinin receptor type A (Cavia porcellus)", "Hydrolysis [%]": 101}
{"COMPOUND": "CN(C(=O)[C@H](CC(=O)O)NC(=O)[C@H](CCCCNC(=O)/C=C/c1cccnc1)NC(=O)C(Cc1c[nH]c2ccccc12)NC(=O)OC(C)(C)C)[C@@H](Cc1ccccc1)C(N)=O (some centres not stated) (Boc-[ξW]K(Acryloyl(3-(3-pyridyl),E))D[NMeF]-NH2)", "TARGET": "Cholecystokinin receptor type A (Cavia porcellus)", "Hydrolysis [%]": 88}

---

target: Cholecystokinin A receptor (Cavia porcellus); assay: In vitro inhibition of [125I]CCK-8 binding to guinea pig pancreas
Square brackets hold non-standard residues; d marks the D form. Peptide text beside a SMILES is read from it. * marks the point of attachment. Acryloyl(3-(3-pyridyl),E) = O=C(/C=C/c1cccnc1)*; NMeF = CN[C@@H](Cc1ccccc1)C(=O)O; NMeD = CN[C@@H](CC(=O)O)C(=O)O; X1 = O=C(/C=C/c1ccc(O)cc1)*; Boc = CC(C)(C)OC(=O)*
VALUE TYPE: IC50 (nM)

a = CN(C(=O)[C@H](CCCCNC(=O)/C=C/c1ccc(O)cc1)NC(=O)[C@H](Cc1c[nH]c2ccccc12)NC(=O)OC(C)(C)C)[C@@H](CC(=O)O)C(=O)N(C)[C@@H](Cc1ccccc1)C(N)=O (Boc-WK(X1)[NMeD][NMeF]-NH2)
b = CN(C(=O)[C@H](CCCCNC(=O)/C=C/c1cccnc1)NC(=O)[C@H](Cc1c[nH]c2ccccc12)NC(=O)OC(C)(C)C)[C@@H](CC(=O)O)C(=O)N(C)[C@@H](Cc1ccccc1)C(N)=O (Boc-WK(Acryloyl(3-(3-pyridyl),E))[NMeD][NMeF]-NH2)
c = CN(C(=O)[C@H](CCCCNC(=O)/C=C/c1ccc(O)cc1)NC(=O)[C@H](Cc1c[nH]c2ccccc12)NC(=O)OC(C)(C)C)[C@@H](CC(=O)O)C(=O)N[C@@H](Cc1ccccc1)C(N)=O (Boc-WK(X1)[NMeD]F-NH2)
[Q] Rank entries according to their IC50, from the largest number down. Reply with the labels, ordered as the question asks.
[A] b, a, c

---

target: Cholecystokinin receptor type A (Cavia porcellus) (UniProt Q63931); test: Percent maximal stimulation of phosphatidylinositol hydrolysis in guinea pig pancreatic acini (CCK-A receptors) relative to CCK-8; assay type: functional
Sequence (Q63931 whole entry): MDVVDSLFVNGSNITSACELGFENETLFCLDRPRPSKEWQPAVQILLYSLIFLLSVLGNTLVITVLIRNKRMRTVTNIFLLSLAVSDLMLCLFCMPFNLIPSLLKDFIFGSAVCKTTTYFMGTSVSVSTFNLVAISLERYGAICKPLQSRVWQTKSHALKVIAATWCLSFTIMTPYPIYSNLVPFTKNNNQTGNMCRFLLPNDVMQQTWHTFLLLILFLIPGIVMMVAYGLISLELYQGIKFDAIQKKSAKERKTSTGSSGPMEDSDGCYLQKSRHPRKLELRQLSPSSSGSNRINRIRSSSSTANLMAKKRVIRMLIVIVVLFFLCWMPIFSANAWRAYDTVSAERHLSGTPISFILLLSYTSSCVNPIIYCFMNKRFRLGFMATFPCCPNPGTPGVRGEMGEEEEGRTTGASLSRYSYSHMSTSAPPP
Square brackets hold non-standard residues; d marks the D form. Peptide text beside a SMILES is read from it. * marks the point of attachment. ξ: configuration not given here. Acryloyl(3-(3-pyridyl),E) = O=C(/C=C/c1cccnc1)*; NMeF = CN[C@@H](Cc1ccccc1)C(=O)O; ξW = NC(Cc1c[nH]c2ccccc12)C(=O)O; NMeD = CN[C@@H](CC(=O)O)C(=O)O; X1 = O=C(/C=C/c1ccc(O)cc1)*; Boc = CC(C)(C)OC(=O)*
VALUE TYPE: Hydrolysis (%)

{"COMPOUND": "CN(C(=O)[C@H](CCCCNC(=O)/C=C/c1cccnc1)NC(=O)C(Cc1c[nH]c2ccccc12)NC(=O)OC(C)(C)C)[C@@H](CC(=O)O)C(=O)N(C)[C@@H](Cc1ccccc1)C(N)=O (stereo partly drawn) (Boc-[ξW]K(Acryloyl(3-(3-pyridyl),E))[NMeD][NMeF]-NH2)", "Hydrolysis, %": 94}
{"COMPOUND": "CN(C(=O)[C@H](CCCCNC(=O)/C=C/c1ccc(O)cc1)NC(=O)C(Cc1c[nH]c2ccccc12)NC(=O)OC(C)(C)C)[C@@H](CC(=O)O)C(=O)N(C)[C@@H](Cc1ccccc1)C(N)=O (stereo partly drawn) (Boc-[ξW]K(X1)[NMeD][NMeF]-NH2)", "Hydrolysis, %": 91}
{"COMPOUND": "CN(C(=O)[C@H](CCCCNC(=O)/C=C/c1cccnc1)NC(=O)C(Cc1c[nH]c2ccccc12)NC(=O)OC(C)(C)C)[C@@H](CC(=O)O)C(=O)N[C@@H](Cc1ccccc1)C(N)=O (stereo partly drawn) (Boc-[ξW]K(Acryloyl(3-(3-pyridyl),E))[NMeD]F-NH2)", "Hydrolysis, %": 98}

---

target: Cholecystokinin receptor type A (Cavia porcellus) (UniProt Q63931); assay: Percent maximal stimulation of phosphatidylinositol hydrolysis in guinea pig pancreatic acini (CCK-A receptors) relative to CCK-8; type: functional
Square brackets hold non-standard residues; d marks the D form. Peptide text beside a SMILES is read from it. * marks the point of attachment. ξ: configuration not given here. NMeF = CN[C@@H](Cc1ccccc1)C(=O)O; ξW = NC(Cc1c[nH]c2ccccc12)C(=O)O; NMeD = CN[C@@H](CC(=O)O)C(=O)O; X1 = O=C(/C=C/c1ccc(O)cc1)*; X2 = O=C(/C=C/c1cccs1)*; Boc = CC(C)(C)OC(=O)*
VALUE TYPE: Hydrolysis (%)

{"COMPOUND": "CN(C(=O)[C@H](CC(=O)O)NC(=O)[C@H](CCCCNC(=O)/C=C/c1cccs1)NC(=O)C(Cc1c[nH]c2ccccc12)NC(=O)OC(C)(C)C)[C@@H](Cc1ccccc1)C(N)=O (some centres undefined) (Boc-[ξW]K(X2)D[NMeF]-NH2)", "TARGET": "Cholecystokinin receptor type A (Cavia porcellus) (UniProt Q63931)", "VALUE TYPE": "Hydrolysis", "ASSAY RESULT": 84}
{"COMPOUND": "CN(C(=O)[C@H](CCCCNC(=O)/C=C/c1cccs1)NC(=O)C(Cc1c[nH]c2ccccc12)NC(=O)OC(C)(C)C)[C@@H](CC(=O)O)C(=O)N[C@@H](Cc1ccccc1)C(N)=O (some centres undefined) (Boc-[ξW]K(X2)[NMeD]F-NH2)", "TARGET": "Cholecystokinin receptor type A (Cavia porcellus) (UniProt Q63931)", "VALUE TYPE": "Hydrolysis", "ASSAY RESULT": 95}
{"COMPOUND": "CN(C(=O)[C@H](CCCCNC(=O)/C=C/c1cccs1)NC(=O)C(Cc1c[nH]c2ccccc12)NC(=O)OC(C)(C)C)[C@@H](CC(=O)O)C(=O)N(C)[C@@H](Cc1ccccc1)C(N)=O (some centres undefined) (Boc-[ξW]K(X2)[NMeD][NMeF]-NH2)", "TARGET": "Cholecystokinin receptor type A (Cavia porcellus) (UniProt Q63931)", "VALUE TYPE": "Hydrolysis", "ASSAY RESULT": 93}
{"COMPOUND": "CN(C(=O)[C@H](CC(=O)O)NC(=O)[C@H](CCCCNC(=O)/C=C/c1ccc(O)cc1)NC(=O)C(Cc1c[nH]c2ccccc12)NC(=O)OC(C)(C)C)[C@@H](Cc1ccccc1)C(N)=O (some centres undefined) (Boc-[ξW]K(X1)D[NMeF]-NH2)", "TARGET": "Cholecystokinin receptor type A (Cavia porcellus) (UniProt Q63931)", "VALUE TYPE": "Hydrolysis", "ASSAY RESULT": 76}

---

target: Cholecystokinin A receptor (Cavia porcellus); assay: In vitro inhibition of [125I]CCK-8 binding to guinea pig pancreas
Square brackets hold non-standard residues; d marks the D form. Peptide text beside a SMILES is read from it. * marks the point of attachment. Acryloyl(3-(3-pyridyl),E) = O=C(/C=C/c1cccnc1)*; NMeF = CN[C@@H](Cc1ccccc1)C(=O)O; NMeD = CN[C@@H](CC(=O)O)C(=O)O; X2 = O=C(/C=C/c1cccs1)*; Boc = CC(C)(C)OC(=O)*
VALUE TYPE: IC50 (nM)

{"COMPOUND": "CN(C(=O)[C@H](CCCCNC(=O)/C=C/c1cccs1)NC(=O)[C@H](Cc1c[nH]c2ccccc12)NC(=O)OC(C)(C)C)[C@@H](CC(=O)O)C(=O)N(C)[C@@H](Cc1ccccc1)C(N)=O (Boc-WK(X2)[NMeD][NMeF]-NH2)", "VALUE TYPE": "IC50", "ASSAY RESULT": 32}

a = CN(C(=O)[C@H](CC(=O)O)NC(=O)[C@H](CCCCNC(=O)/C=C/c1cccs1)NC(=O)[C@H](Cc1c[nH]c2ccccc12)NC(=O)OC(C)(C)C)[C@@H](Cc1ccccc1)C(N)=O (Boc-WK(X2)D[NMeF]-NH2)
b = CN(C(=O)[C@H](CCCCNC(=O)/C=C/c1cccnc1)NC(=O)[C@H](Cc1c[nH]c2ccccc12)NC(=O)OC(C)(C)C)[C@@H](CC(=O)O)C(=O)N[C@@H](Cc1ccccc1)C(N)=O (Boc-WK(Acryloyl(3-(3-pyridyl),E))[NMeD]F-NH2)
[Q] For a and b , which recorded IC50 is lower? Your answer should be the label attached to the chosen record.
[A] a
